# PROTOCOL TEXT: Drug concentrations on day-8 in CS-model mice after 7-day intranasal treatment
# Format: in vivo
# TEST CONDITIONS: C57BL/6, mouse, lung, other: intranasal; CS exposed mice, day-8, intranasal 10 µg/animal; read-out: Total concentration Lung
MEASURED QUANTITY: concentration at 1 h (µM)
The reply should be a number in µM, with the unit left off.

stdin: Return reported concentration at 1 h; argument: CCn1c(C(C)(C)Oc2ccc(F)cc2F)nc2cc(NC(=O)Cc3ccc(S(=O)(=O)CC)cc3)ccc21
stdout: 53.6

###

# PROTOCOL TEXT: Toxicokinetics (blood), 14-day inhalation study in Sprague Dawley rats
# Format: in vivo, rat
# TEST CONDITIONS: male, Sprague Dawley, rat, blood, inhaled or intranasal, 10.8 mg/kg/day, SD rat blood, inhalation, 10.8 mg/kg/day, Day 1, Male; read-out: AUC0-tlast, mean (SE)
MEASURED QUANTITY: AUC(0-t) (ng·h/mL)
The reply should be a number in ng·h/mL, with the unit left off.

stdin: Return reported AUC(0-t); argument: CCn1c(C(C)(C)Oc2ccc(F)cc2F)nc2cc(NC(=O)Cc3ccc(S(=O)(=O)CC)cc3)ccc21 [PCCR-1]
stdout: 2910

###

# PROTOCOL TEXT: Toxicokinetics (blood), 14-day inhalation study in Sprague Dawley rats
# Assay type: in vivo, rat
# TEST CONDITIONS: female, Sprague-Dawley, rat, blood, inhaled or intranasal, 10.8 mg/kg/day, SD rat blood, inhalation, 10.8 mg/kg/day, Day 1, Female
MEASURED QUANTITY: half-life
Please give the number followed by its unit.

stdin: Return reported half-life; argument: CCn1c(C(C)(C)Oc2ccc(F)cc2F)nc2cc(NC(=O)Cc3ccc(S(=O)(=O)CC)cc3)ccc21 [PCCR-1]
stdout: 5.8 h

###

# PROTOCOL TEXT: Toxicokinetics (blood), 14-day inhalation study in Sprague Dawley rats
# Type: in vivo, rat
# TEST CONDITIONS: female, Sprague-Dawley, rat, whole blood, inhaled or intranasal, 10.8 mg/kg/day, SD rat blood, inhalation, 10.8 mg/kg/day, Day 14, Female; read-out: Cmax, mean (SE)
MEASURED QUANTITY: Cmax (ng/mL)
The reply should be a number in ng/mL, with the unit left off.

stdin: Return reported Cmax; argument: CCn1c(C(C)(C)Oc2ccc(F)cc2F)nc2cc(NC(=O)Cc3ccc(S(=O)(=O)CC)cc3)ccc21
stdout: 679

###

# PROTOCOL TEXT: Drug concentrations on day-8 in CS-model mice after 7-day intranasal treatment
# Type: in vivo
# TEST CONDITIONS: C57BL/6, mouse, lung, other: intranasal; CS exposed mice, day-8, intranasal 100 µg/animal; read-out: Total concentration Lung
MEASURED QUANTITY: concentration at 1 h (µM)
The reply should be a number in µM, with the unit left off.

stdin: Return reported concentration at 1 h; argument: CCn1c(C(C)(C)Oc2ccc(F)cc2F)nc2cc(NC(=O)Cc3ccc(S(=O)(=O)CC)cc3)ccc21
stdout: 608

###

# PROTOCOL TEXT: Toxicokinetics (blood), 14-day inhalation study in Sprague Dawley rats
# Type: in vivo, rat
# TEST CONDITIONS: female, Sprague-Dawley, rat, in vivo, inhaled or intranasal, 32.1 mg/kg/day, SD rat blood, inhalation, 32.1 mg/kg/day, Day 14, Female; read-out: Cmax, mean (SE)
MEASURED QUANTITY: Cmax (ng/mL)
The reply should be a number in ng/mL, with the unit left off.

stdin: Return reported Cmax; argument: CCn1c(C(C)(C)Oc2ccc(F)cc2F)nc2cc(NC(=O)Cc3ccc(S(=O)(=O)CC)cc3)ccc21
stdout: 1150

###

# SUBJECT OF TEST: Alpha 1D (Homo sapiens, UniProt P25100)
# Sequence (P25100 1-572): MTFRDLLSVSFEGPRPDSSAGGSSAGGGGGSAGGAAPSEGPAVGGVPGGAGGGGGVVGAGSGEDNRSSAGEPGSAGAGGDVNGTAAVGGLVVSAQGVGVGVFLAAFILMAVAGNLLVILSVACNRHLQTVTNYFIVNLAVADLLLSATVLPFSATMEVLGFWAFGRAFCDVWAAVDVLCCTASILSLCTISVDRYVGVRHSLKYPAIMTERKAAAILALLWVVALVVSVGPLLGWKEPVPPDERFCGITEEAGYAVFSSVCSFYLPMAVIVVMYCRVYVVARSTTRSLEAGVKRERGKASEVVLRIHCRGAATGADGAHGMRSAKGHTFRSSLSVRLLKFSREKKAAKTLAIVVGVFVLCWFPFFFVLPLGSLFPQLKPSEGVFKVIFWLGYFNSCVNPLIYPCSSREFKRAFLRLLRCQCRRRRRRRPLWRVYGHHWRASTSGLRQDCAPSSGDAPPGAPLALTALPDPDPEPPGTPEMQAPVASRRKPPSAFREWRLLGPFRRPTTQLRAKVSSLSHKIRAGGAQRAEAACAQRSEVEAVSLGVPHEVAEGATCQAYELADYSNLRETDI
MEASURED QUANTITY: pIC50
Lab note: report pIC50 as minus log10 of the concentration in molar units, number only.

stdin: Return reported pIC50; argument: CCn1c(C(C)(C)Oc2ccc(F)cc2F)nc2cc(NC(=O)Cc3ccc(S(=O)(=O)CC)cc3)ccc21 [PCCR-1]
stdout: 6.26

###

# PROTOCOL TEXT: Toxicokinetics (blood), 14-day inhalation study in Sprague Dawley rats
# Assay type: in vivo, rat
# TEST CONDITIONS: female, Sprague-Dawley, rat, blood, inhaled or intranasal, 10.8 mg/kg/day, SD rat blood, inhalation, 10.8 mg/kg/day, Day 1, Female; read-out: Cmax, mean (SE)
MEASURED QUANTITY: Cmax (ng/mL)
The reply should be a number in ng/mL, with the unit left off.

stdin: Return reported Cmax; argument: CCn1c(C(C)(C)Oc2ccc(F)cc2F)nc2cc(NC(=O)Cc3ccc(S(=O)(=O)CC)cc3)ccc21
stdout: 544

###

# PROTOCOL TEXT: Toxicokinetics (blood), 14-day inhalation study in Sprague Dawley rats
# Format: in vivo, rat
# TEST CONDITIONS: both sexes, Sprague-Dawley, rat, in vivo, inhaled or intranasal, 32.1 mg/kg/day, SD rat blood, inhalation, 32.1 mg/kg/day, Day 14, Mean; read-out: Cmax, mean (SE)
MEASURED QUANTITY: Cmax (ng/mL)
The reply should be a number in ng/mL, with the unit left off.

stdin: Return reported Cmax; argument: CCn1c(C(C)(C)Oc2ccc(F)cc2F)nc2cc(NC(=O)Cc3ccc(S(=O)(=O)CC)cc3)ccc21
stdout: 1020

###

# PROTOCOL TEXT: Drug concentrations on day-8 in CS-model mice after 7-day intranasal treatment
# Type: in vivo
# TEST CONDITIONS: C57BL/6, mouse, lung, other: intranasal; CS exposed mice, day-8, intranasal 1 µg/animal; read-out: Total concentration Lung
# Protocol: Additionally, after 7-day intranasal treatment with PCCR-1 in the CS-model in mice as described above, blood, BAL fluid and lung tissues were collected on day-8 approximately 1 h after the last treatment dose for estimating the drug concentrations for PK-PD correlation.
MEASURED QUANTITY: concentration at 1 h
Please give the number followed by its unit.

stdin: Return reported concentration at 1 h; argument: CCn1c(C(C)(C)Oc2ccc(F)cc2F)nc2cc(NC(=O)Cc3ccc(S(=O)(=O)CC)cc3)ccc21
stdout: 5.48 µM

###

# PROTOCOL TEXT: Drug concentrations on day-8 in CS-model mice after 7-day intranasal treatment
# Assay type: in vivo
# TEST CONDITIONS: C57BL/6, mouse, plasma, other: intranasal; CS exposed mice, day-8, intranasal 50 µg/animal; read-out: Total concentration Plasma
# Method: Additionally, after 7-day intranasal treatment with PCCR-1 in the CS-model in mice as described above, blood, BAL fluid and lung tissues were collected on day-8 approximately 1 h after the last treatment dose for estimating the drug concentrations for PK-PD correlation.
MEASURED QUANTITY: concentration at 1 h (nM)
The reply should be a number in nM, with the unit left off.

stdin: Return reported concentration at 1 h; argument: CCn1c(C(C)(C)Oc2ccc(F)cc2F)nc2cc(NC(=O)Cc3ccc(S(=O)(=O)CC)cc3)ccc21 [PCCR-1]
stdout: 33.2

###

# SUBJECT OF TEST: hERG (Homo sapiens)
# Sequence (Q12809 whole entry): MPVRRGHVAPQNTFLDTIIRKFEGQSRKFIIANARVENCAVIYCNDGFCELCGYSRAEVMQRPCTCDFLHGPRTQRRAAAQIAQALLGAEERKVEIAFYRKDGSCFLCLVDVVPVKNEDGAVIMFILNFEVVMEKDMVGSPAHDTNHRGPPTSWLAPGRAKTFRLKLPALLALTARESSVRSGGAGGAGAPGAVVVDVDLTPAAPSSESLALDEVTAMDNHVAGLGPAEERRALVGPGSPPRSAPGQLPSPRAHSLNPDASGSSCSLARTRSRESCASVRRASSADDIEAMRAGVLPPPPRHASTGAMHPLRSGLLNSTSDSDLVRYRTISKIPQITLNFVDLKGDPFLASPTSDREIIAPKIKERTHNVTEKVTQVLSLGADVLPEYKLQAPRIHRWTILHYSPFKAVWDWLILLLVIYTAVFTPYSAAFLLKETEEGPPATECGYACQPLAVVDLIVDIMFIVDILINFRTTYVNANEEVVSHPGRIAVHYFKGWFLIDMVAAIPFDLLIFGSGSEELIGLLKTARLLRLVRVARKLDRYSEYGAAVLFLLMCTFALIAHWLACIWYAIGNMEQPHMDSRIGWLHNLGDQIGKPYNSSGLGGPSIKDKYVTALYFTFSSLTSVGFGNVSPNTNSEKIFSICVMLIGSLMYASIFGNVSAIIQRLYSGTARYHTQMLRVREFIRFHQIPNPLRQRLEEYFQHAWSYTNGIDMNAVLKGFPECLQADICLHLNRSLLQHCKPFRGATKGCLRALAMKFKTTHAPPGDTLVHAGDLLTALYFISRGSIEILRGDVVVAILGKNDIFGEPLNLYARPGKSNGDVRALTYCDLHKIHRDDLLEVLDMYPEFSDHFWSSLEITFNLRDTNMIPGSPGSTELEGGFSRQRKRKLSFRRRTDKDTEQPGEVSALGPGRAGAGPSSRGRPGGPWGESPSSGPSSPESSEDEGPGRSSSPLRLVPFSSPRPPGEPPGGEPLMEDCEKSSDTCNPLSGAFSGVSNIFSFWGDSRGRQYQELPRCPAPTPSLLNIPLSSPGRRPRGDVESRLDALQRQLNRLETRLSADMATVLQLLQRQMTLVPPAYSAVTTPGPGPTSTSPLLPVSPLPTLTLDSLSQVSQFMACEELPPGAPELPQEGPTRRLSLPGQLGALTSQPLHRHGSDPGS
# PROTOCOL TEXT: hERG
# TEST CONDITIONS: rated moderate
MEASURED QUANTITY: pIC50
Lab note: report pIC50 as minus log10 of the concentration in molar units, number only.

stdin: Return reported pIC50; argument: CCn1c(C(C)(C)Oc2ccc(F)cc2F)nc2cc(NC(=O)Cc3ccc(S(=O)(=O)CC)cc3)ccc21
stdout: 5.22

###

# SUBJECT OF TEST: human RORγ LBD (Homo sapiens)
# Sequence (P51449 229-497 isoform P51449-2): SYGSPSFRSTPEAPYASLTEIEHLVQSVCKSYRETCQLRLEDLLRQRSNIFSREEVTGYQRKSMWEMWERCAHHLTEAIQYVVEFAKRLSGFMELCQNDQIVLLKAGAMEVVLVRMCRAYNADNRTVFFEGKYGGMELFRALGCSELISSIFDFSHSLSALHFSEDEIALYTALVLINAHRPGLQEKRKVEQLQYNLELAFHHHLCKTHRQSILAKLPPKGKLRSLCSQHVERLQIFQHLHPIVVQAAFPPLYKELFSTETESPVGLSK
MEASURED QUANTITY: pIC50
Lab note: report pIC50 as minus log10 of the concentration in molar units, number only.

stdin: Return reported pIC50; argument: CCn1c(C(C)(C)Oc2ccc(F)cc2F)nc2cc(NC(=O)Cc3ccc(S(=O)(=O)CC)cc3)ccc21
stdout: 7.46
